Target: Tyrosyl-tRNA synthetase, putative (Trypanosoma cruzi (strain CL Brener)) (UniProt Q4DSP6)
Sequence (Q4DSP6 as listed by the source): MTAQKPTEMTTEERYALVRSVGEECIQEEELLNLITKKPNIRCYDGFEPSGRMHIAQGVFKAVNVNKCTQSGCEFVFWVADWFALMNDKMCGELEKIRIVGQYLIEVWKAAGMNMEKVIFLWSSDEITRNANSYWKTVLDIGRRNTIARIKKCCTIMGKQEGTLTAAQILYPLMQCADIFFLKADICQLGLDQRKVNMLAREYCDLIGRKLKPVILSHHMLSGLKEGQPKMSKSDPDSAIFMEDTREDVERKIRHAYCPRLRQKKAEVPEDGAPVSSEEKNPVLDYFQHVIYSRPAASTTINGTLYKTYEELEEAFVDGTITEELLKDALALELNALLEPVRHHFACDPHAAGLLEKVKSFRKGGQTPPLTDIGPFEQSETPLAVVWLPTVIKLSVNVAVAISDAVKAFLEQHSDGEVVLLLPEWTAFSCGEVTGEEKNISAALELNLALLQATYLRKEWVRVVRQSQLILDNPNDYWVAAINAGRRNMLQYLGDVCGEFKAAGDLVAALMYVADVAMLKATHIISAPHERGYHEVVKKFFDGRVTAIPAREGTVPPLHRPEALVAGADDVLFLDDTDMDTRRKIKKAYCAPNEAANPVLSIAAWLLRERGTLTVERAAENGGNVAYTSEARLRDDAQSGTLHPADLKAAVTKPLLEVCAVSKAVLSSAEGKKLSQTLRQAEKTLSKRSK
Experiment: Trypanosoma cruzi tyrosyl tRNA synthetase (TcYRS) _High Tyrosine SOP
Type: functional
Parameters: scale not given: in the data most compounds retested in dose-response had high values
Settings: 30 µM
# Percent Effect >= 3% gives Criterion met, anything below gives Criterion not met

INSERT INTO measurements (compound, assayed_target, group) VALUES
  ('Cc1nc(CSCCC(=O)NCc2cccnc2N(C)C)cs1', 'Tyrosyl-tRNA synthetase, putative (Trypanosoma cruzi (strain CL Brener)) (UniProt Q4DSP6)', 'Criterion met'),
  ('CN(Cc1ccccc1)C1(C(=O)O)Cc2ccccc2C1', 'Tyrosyl-tRNA synthetase, putative (Trypanosoma cruzi (strain CL Brener)) (UniProt Q4DSP6)', 'Criterion not met'),
  ('CC(=O)N1CCN(C(=O)c2cnn(-c3ccccc3Cl)c2)CC1', 'Tyrosyl-tRNA synthetase, putative (Trypanosoma cruzi (strain CL Brener)) (UniProt Q4DSP6)', 'Criterion met'),
  ('CNS(=O)(=O)Cc1ccc(CNC(=O)c2cccc(C)n2)cc1', 'Tyrosyl-tRNA synthetase, putative (Trypanosoma cruzi (strain CL Brener)) (UniProt Q4DSP6)', 'Criterion met'),
  ('Cc1noc(C)c1CN1CC[C@H]2OCC[C@@H](C(=O)NCC3CC3)[C@@H]2C1', 'Tyrosyl-tRNA synthetase, putative (Trypanosoma cruzi (strain CL Brener)) (UniProt Q4DSP6)', 'Criterion not met'),
  ('CS(=O)(=O)N1CC[C@H]2O[C@H](C(=O)NCCc3ccncc3)CC[C@H]21', 'Tyrosyl-tRNA synthetase, putative (Trypanosoma cruzi (strain CL Brener)) (UniProt Q4DSP6)', 'Criterion not met'),
  ('Cc1cccc(CN2C[C@@H]3CN(C(=O)c4ccsc4)C[C@@H]3C2=O)c1', 'Tyrosyl-tRNA synthetase, putative (Trypanosoma cruzi (strain CL Brener)) (UniProt Q4DSP6)', 'Criterion met'),
  ('CCCOc1ccc(CNC(=O)N2CCC(C(N)=O)C2)cc1 (stereo not given)', 'Tyrosyl-tRNA synthetase, putative (Trypanosoma cruzi (strain CL Brener)) (UniProt Q4DSP6)', 'Criterion met'),
  ('CC(NCc1ccc(F)cc1)c1ccc(OCC(=O)NC2CC2)cc1 (stereo not given)', 'Tyrosyl-tRNA synthetase, putative (Trypanosoma cruzi (strain CL Brener)) (UniProt Q4DSP6)', 'Criterion not met');

The reported numbers originate from ChEMBL document CHEMBL3988442.
